# subject.of.test: T1, human FcRn/b2M (human, UniProt P61769 21-119, biotinylated)
# T1 construct: bought recombinant biotinylated protein (ACRO FCM-H82W4 or Immunitrack ITF01); also called hFcRn; hFcRn/hb2M
# test.details: SPR pH 6.0
Measured koff accompanies every entry in the list below.
property.name: koff (s⁻¹)

[[record]]
binder = "T026301080 (VHH, name in Kabat numbering, tagless) VHH: EVQLVESGGGVVQPGGSLRLSCAASGFTFSSYDMYWVRQAPGKGLEWVSAISSGGGSTDYADSVKGRFTISRDNSKNTLYLQMNSLRPEDTALYYCAADTLYTSLTSYSYWGQGTLVTVSS"
readout_unit = "s⁻¹"
recorded_measurement = 0.0051

[[record]]
binder = "T026301112 (VHH, name in Kabat numbering, tagless) VHH: EVQLVESGGGVVQPGGSLRLSCAASGFTFSEYDMYWVRQAPGKGLEWVSAISQGGGSTDYADSVKGRFTISRDNSKNTLYLQMNSLRPEDTALYYCAADTLYTSLTKYSYWGQGTLVTVSS"
readout_unit = "s⁻¹"
recorded_measurement = 0.0072

[[record]]
binder = "T026301089 (VHH, name in Kabat numbering, tagless) VHH: EVQLVESGGGVVQPGGSLRLSCAASGFTFSSYAMYWVRQAPGKGLEWVSAISSGGGSTDYADSVKGRFTISRDNSKNTLYLQMNSLRPEDTALYYCAADTLYTDLTKYSYWGQGTLVTVSS"
readout_unit = "s⁻¹"
recorded_measurement = 0.028

[[record]]
binder = "T026301072 (VHH, name in Kabat numbering, tagless) VHH: EVQLVESGGGVVQPGGSLRLSCAASGFTFSSYDMYWVRQAPGKGLEWVSAISQGGGSTDYADSVKGRFTISRDNSKNTLYLQMNSLRPEDTALYYCAADTLYTDLTSYSYWGQGTLVTVSS"
readout_unit = "s⁻¹"
recorded_measurement = 0.015

[[record]]
binder = "T026301090 (VHH, name in Kabat numbering, tagless) VHH: EVQLVESGGGVVQPGGSLRLSCAASTFTFSSYAMYWVRQAPGKGLEWVSAISQGGGSTDYADSVKGRFTISRDNSKNTLYLQMNSLRPEDTALYYCAADTLYTSLTKYSYWGQGTLVTVSS"
readout_unit = "s⁻¹"
recorded_measurement = 0.033

[[record]]
binder = "T026301052 (VHH, name in Kabat numbering, tagless) VHH: EVQLVESGGGVVQPGGSLRLSCAASTFTFSEYDMYWVRQAPGKGLEWVSAISSGGGSTDYADSVKGRFTISRDNSKNTLYLQMNSLRPEDTALYYCAADTLYTSLTWYSYWGQGTLVTVSS"
readout_unit = "s⁻¹"
recorded_measurement = 0.0056

[[record]]
binder = "T026301124 (VHH, name in Kabat numbering, tagless) VHH: EVQLVESGGGVVQPGGSLRLSCAASTFTFSEYAMYWVRQAPGKGLEWVSAISQGGGSTDYADSVKGRFTISRDNSKNTLYLQMNSLRPEDTALYYCAADTLYTSLTKYSYWGQGTLVTVSS"
readout_unit = "s⁻¹"
recorded_measurement = 0.059

[[record]]
binder = "T026301083 (VHH, name in Kabat numbering, tagless) VHH: EVQLVESGGGVVQPGGSLRLSCAASGFTFSEYAMYWVRQAPGKGLEWVSAISQGGGSTDYADSVKGRFTISRDNSKNTLYLQMNSLRPEDTALYYCAADTLYTDLTSYSYWGQGTLVTVSS"
readout_unit = "s⁻¹"
recorded_measurement = 0.067


FYI, the data here is from patent US20240132624A1.
